Sourced from the supplement of paper PMC4894684

Parameter: parasite growth. Scope: all listed entries.
- Test system: Toxoplasma gondii RH (in HFF)
- experimental.details: parasite growth relative to the screen mean (all compounds = 100%); higher = less inhibition of parasite growth
- run.conditions: 5 µM; 72 h; oxygen 21 %
Structures can show the parent of a compound that is named as a salt.
Supply the numeric figure in %, leaving out any unit text.

The cases that follow already have their parasite growth on record.
>  <molecule>
O=C(O)C1=CCCN(CCON=C(c2ccccc2)c2ccccc2)C1

>  <unit.name>
%

>  <parasite growth>
159

$$$$
>  <molecule>
CC(O)(C(=O)Nc1ccc(S(=O)(=O)c2ccccc2)cc1)C(F)(F)F (stereo unspecified)

>  <unit.name>
%

>  <parasite growth>
59.3

$$$$
>  <molecule>
CCN(CC)CC1CCCCN1CC(=O)N1c2ccccc2C(=O)Nc2cccnc21 (stereo unspecified)

>  <unit.name>
%

>  <parasite growth>
146

$$$$

Lab request: please report parasite growth under test system Toxoplasma gondii RH (in HFF) for CNC(=O)c1cc2c(cn1)[nH]c1ccccc12
124

Lab request: please report parasite growth under test system Toxoplasma gondii RH (in HFF) for Clc1ccc(-c2nc3sccn3c2/C=N/OCc2ccc(Cl)c(Cl)c2)cc1
110

Lab request: please report parasite growth under test system Toxoplasma gondii RH (in HFF) for CCc1cc(Cl)c(OC)c(C(=O)NC[C@@H]2CCCN2CC)c1O [Eticlopride hydrochloride]
106

Lab request: please report parasite growth under test system Toxoplasma gondii RH (in HFF) for COc1ccc2c(c1)c(CC(=O)O)c(C)n2C(=O)c1ccc(Cl)cc1 [Indomethacin]
150

###

- Test system: Toxoplasma gondii RH (in HFF)
- experimental.details: parasite growth relative to the screen mean (all compounds = 100%); higher = less inhibition of parasite growth
- run.conditions: 5 µM; 72 h; oxygen 21 %
Where a name gives a salt, the structure may show the parent alone.
Parameter: parasite growth. Scope: all listed entries.
Supply the numeric figure in %, leaving out any unit text.

The cases that follow already have their parasite growth on record.
>  <compound>
NC(=O)N/N=C/c1ccc(Oc2ccc(F)cc2)cc1

>  <parasite growth (%)>
145

$$$$
>  <compound>
COc1cc(-c2ccc(=O)[nH]n2)ccc1OC(F)F

>  <parasite growth (%)>
103

$$$$
>  <compound>
Nc1c(Br)cc(Br)cc1CN[C@H]1CC[C@H](O)CC1 [Ambroxol hydrochloride]

>  <parasite growth (%)>
136

$$$$
>  <compound>
CCOC(=O)[C@@H](C)Oc1cccc2c(=O)n(CC(=O)Nc3ccc4c(c3)OCCO4)ccc12

>  <parasite growth (%)>
118

$$$$
>  <compound>
Cc1cc(I)ccc1Nc1c(C(=O)NOCC2CC2)cc(F)c(F)c1F

>  <parasite growth (%)>
107

$$$$

Lab request: please report parasite growth under test system Toxoplasma gondii RH (in HFF) for CC(C)C1C2CCC(C2)C1N (configuration not stated)
118

Lab request: please report parasite growth under test system Toxoplasma gondii RH (in HFF) for CC1(C)CCC(C)(C)c2cc(C(=O)Nc3ccc(C(=O)O)cc3)ccc21
113

Lab request: please report parasite growth under test system Toxoplasma gondii RH (in HFF) for Nc1nc(Cl)nc2c1ncn2[C@@H]1O[C@H](CO)[C@@H](O)[C@@H]1F
67.9

Lab request: please report parasite growth under test system Toxoplasma gondii RH (in HFF) for CN=c1nc(-c2ccccc2)n(-c2ccccc2)s1
127

Lab request: please report parasite growth under test system Toxoplasma gondii RH (in HFF) for CC(=O)N(O)[C@@H]1c2cc(C#N)ccc2OC(C)(C)[C@H]1O
92.8

Lab request: please report parasite growth under test system Toxoplasma gondii RH (in HFF) for NC(C(=O)O)c1ccc(C(=O)O)c(C(=O)O)c1 (configuration not stated)
141
